Overview of reported DC50 (time for loss of 50% of the complexes) across a group of binders:
# assay_system: T1, HLA-A*0201 molecule (human)
# T1 construct: MHC class I molecule on T2 cells, to which the test peptides are added from outside
# test_method_notes: T2 cells loaded with 100 µM peptide, Brefeldin A, flow cytometry with BB7.2 at 0-8 h

Below, 6 binders whose answers are already recorded.
YLEYRQVPV (Variant of p248G9 and p248D9 with valine at P9) [p248V9 (YLEYRQVPV)]	4 h
YLGLSYDGLL (Variant of p174 with tyrosine at P1) [p174Y1 (YLGLSYDGLL)]	< 2 h
YLGLSYDGLV (Variant of p174 with tyrosine at P1 and valine at P10) [p174Y1V10 (YLGLSYDGLV)]	< 2 h
CLGLSYDGLL (Native peptide of MAGE-A1, -A2, -A3, -A4, -A6, -A12; It is named by the position of its first residue in MAGE-A1) [p174 (CLGLSYDGLL)]	< 2 h
YLEYRQVPG (Native peptide of MAGE-A2, -A3, -A4, -A6, -A10, -A12) [p248G9 (YLEYRQVPG)]	< 2 h
YLFLWGPRA (Variant of p262 with leucine at P2) [p262L2 (YLFLWGPRA)]	6 h

Alright, here's another binder for you.
Q: Let me know recorded DC50 (time for loss of 50% of the complexes) for YLEYRQVPD (Native peptide of MAGE-A1) [p248D9 (YLEYRQVPD)] , thanks.
Ans: < 2 h
